Protocol notes: Plasma pharmacokinetics of TSU-68
Assay type: in vivo, human (Japanese patients)
Study conditions: human, plasma, oral, 400 mg/m2, T1/2, 400 mg/m^2, Day 1, 3 patients, plasma
Assay readout: half-life
Please give the number followed by its unit.

Endpoint output: half-life of Cc1[nH]c(/C=C2\C(=O)Nc3ccccc32)c(C)c1CCC(=O)O [TSU-68] . Value?
7.89 h

* * *

Protocol notes: Plasma pharmacokinetics of TSU-68
Type: in vivo, human (Japanese patients)
Study conditions: human, plasma, oral, 400 mg/m2, AUC0–t, 400 mg/m^2, Day 29, 2 patients, plasma
Assay readout: AUC(0-t) (ng·h/mL)
Your answer is read as ng·h/mL, so omit the unit and give the number.

Endpoint output: AUC(0-t) of Cc1[nH]c(/C=C2\C(=O)Nc3ccccc32)c(C)c1CCC(=O)O . Value?
22900

* * *

Protocol notes: Plasma pharmacokinetics of TSU-68
Format: in vivo, human (Japanese patients)
Study conditions: human, plasma, oral, 400 mg/m2, AUC0–t, 400 mg/m^2, Day 8, 3 patients, plasma
Assay readout: AUC(0-t) (ng·h/mL)
Your answer is read as ng·h/mL, so omit the unit and give the number.

Endpoint output: AUC(0-t) of Cc1[nH]c(/C=C2\C(=O)Nc3ccccc32)c(C)c1CCC(=O)O . Value?
25000

* * *

Protocol notes: Plasma pharmacokinetics of TSU-68
Type: in vivo, human (Japanese patients)
Study conditions: human, plasma, oral, 400 mg/m2, T1/2, 400 mg/m^2, Day 8, 3 patients, plasma
Assay readout: half-life (h)
Your answer is read as h, so omit the unit and give the number.

Endpoint output: half-life of Cc1[nH]c(/C=C2\C(=O)Nc3ccccc32)c(C)c1CCC(=O)O . Value?
3.53

* * *

Protocol notes: Plasma pharmacokinetics of TSU-68
Format: in vivo, human (Japanese patients)
Study conditions: human, plasma, oral, 400 mg/m2, Cmax, 400 mg/m^2, Day 1, 3 patients, plasma
Assay readout: Cmax (ng/mL)
Your answer is read as ng/mL, so omit the unit and give the number.

Endpoint output: Cmax of Cc1[nH]c(/C=C2\C(=O)Nc3ccccc32)c(C)c1CCC(=O)O . Value?
11700

* * *

Protocol notes: Plasma pharmacokinetics of TSU-68
Type: in vivo, human (Japanese patients)
Study conditions: human, plasma, oral, 200 mg/m2, T1/2, 200 mg/m^2, Day 8, 3 patients, plasma
Assay readout: half-life

Endpoint output: half-life of Cc1[nH]c(/C=C2\C(=O)Nc3ccccc32)c(C)c1CCC(=O)O [TSU-68] . Value?
4.8 h

* * *

Protocol notes: Plasma pharmacokinetics of TSU-68
Assay type: in vivo, human (Japanese patients)
Study conditions: human, plasma, oral, 200 mg/m2, AUC0–t, 200 mg/m^2, Day 8, 3 patients, plasma
Assay readout: AUC(0-t) (µg·h/mL)
Your answer is read as µg·h/mL, so omit the unit and give the number.

Endpoint output: AUC(0-t) of Cc1[nH]c(/C=C2\C(=O)Nc3ccccc32)c(C)c1CCC(=O)O . Value?
20.6
